Test: Cytotoxicity against human RD cells
Assay type: cell-based
observable: CC50

CCN1C(=O)/C(=N\NC(=S)Nc2ccccc2)c2ccccc21; > 25 µM
O=C1/C(=N\NC(=S)Nc2ccccc2)c2ccccc2N1Cc1ccccc1; > 25 µM

Below: the item to evaluate.
Data request: Look up and state reported CC50 for COc1ccc2c(c1)/C(=N/NC(=S)Nc1ccccc1)C(=O)N2
Data returned: > 25 µM
